Target: T1, human CD19 exon1-3-his protein (human, UniProt P15391 20-186, limits assumed)
T1 construct: made in HEK293E cells; also called membrane-distal end; not shown: His tag
T1 sequence (looked up): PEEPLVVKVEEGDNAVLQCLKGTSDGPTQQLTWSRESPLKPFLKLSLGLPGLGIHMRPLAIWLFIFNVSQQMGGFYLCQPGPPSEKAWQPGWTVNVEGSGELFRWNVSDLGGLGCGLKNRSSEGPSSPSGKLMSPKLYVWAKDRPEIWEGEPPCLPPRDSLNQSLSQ
Test: ELISA, coated at 2 ug/mL
parameter: binding result

F4.15.9 (antibody, human IgG1, V domains shown, human-murine chimeric antibody, human IgG1) VH: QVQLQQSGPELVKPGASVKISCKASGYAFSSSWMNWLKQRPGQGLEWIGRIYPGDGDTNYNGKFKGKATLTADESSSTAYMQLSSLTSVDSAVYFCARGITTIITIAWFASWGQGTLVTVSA VL: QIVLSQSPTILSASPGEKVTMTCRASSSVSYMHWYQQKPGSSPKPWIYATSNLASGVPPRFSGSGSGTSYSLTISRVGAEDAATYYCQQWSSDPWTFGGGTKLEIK : no binding
F4.21.2 (antibody, human IgG1, V domains shown, human-murine chimeric antibody, human IgG1) VH: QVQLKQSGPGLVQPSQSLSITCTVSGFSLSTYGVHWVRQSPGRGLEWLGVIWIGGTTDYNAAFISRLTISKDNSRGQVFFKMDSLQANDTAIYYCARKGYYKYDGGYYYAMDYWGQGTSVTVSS VL: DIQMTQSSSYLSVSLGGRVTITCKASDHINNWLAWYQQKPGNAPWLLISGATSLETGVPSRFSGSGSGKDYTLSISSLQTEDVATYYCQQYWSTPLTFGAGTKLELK : no binding
F3.113.16 (antibody, human IgG1, V domains shown, human-murine chimeric antibody, human IgG1) VH: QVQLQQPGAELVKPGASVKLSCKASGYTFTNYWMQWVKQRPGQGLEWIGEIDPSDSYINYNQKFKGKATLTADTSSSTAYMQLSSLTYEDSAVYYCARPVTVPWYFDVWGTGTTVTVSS VL: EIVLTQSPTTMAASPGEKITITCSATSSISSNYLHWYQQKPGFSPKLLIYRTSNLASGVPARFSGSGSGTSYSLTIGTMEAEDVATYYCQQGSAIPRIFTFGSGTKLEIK : no binding
